Target: Sterol O-acyltransferase 1 (Rattus norvegicus, UniProt O70536)
Sequence (O70536 whole entry): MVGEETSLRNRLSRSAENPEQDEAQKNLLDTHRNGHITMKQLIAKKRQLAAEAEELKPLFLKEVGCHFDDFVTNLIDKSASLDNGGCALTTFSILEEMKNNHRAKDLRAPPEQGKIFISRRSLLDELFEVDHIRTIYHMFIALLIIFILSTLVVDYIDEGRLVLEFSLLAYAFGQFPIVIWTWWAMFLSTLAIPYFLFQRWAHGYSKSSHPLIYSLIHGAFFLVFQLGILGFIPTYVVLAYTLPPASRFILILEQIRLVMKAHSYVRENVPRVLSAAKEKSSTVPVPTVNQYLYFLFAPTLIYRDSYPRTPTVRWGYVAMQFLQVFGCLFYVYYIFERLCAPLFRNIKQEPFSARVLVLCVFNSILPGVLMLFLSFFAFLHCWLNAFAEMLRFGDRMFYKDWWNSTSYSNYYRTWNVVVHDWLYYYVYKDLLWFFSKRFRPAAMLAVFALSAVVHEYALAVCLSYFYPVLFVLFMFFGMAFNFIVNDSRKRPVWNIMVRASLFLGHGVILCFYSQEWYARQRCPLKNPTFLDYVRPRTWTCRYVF
Property Name: pIC50
Lab note — pIC50 values are minus log10 of concentrations in M.

The value of pIC50 measured for the molecule CCCCCCCN(Cc1ccco1)C(=O)Nc1cc(C)c(C)cc1C turned out to be 5.65

* * *

Target: Sterol O-acyltransferase 1 (Homo sapiens, UniProt P35610)
Sequence (P35610 whole entry): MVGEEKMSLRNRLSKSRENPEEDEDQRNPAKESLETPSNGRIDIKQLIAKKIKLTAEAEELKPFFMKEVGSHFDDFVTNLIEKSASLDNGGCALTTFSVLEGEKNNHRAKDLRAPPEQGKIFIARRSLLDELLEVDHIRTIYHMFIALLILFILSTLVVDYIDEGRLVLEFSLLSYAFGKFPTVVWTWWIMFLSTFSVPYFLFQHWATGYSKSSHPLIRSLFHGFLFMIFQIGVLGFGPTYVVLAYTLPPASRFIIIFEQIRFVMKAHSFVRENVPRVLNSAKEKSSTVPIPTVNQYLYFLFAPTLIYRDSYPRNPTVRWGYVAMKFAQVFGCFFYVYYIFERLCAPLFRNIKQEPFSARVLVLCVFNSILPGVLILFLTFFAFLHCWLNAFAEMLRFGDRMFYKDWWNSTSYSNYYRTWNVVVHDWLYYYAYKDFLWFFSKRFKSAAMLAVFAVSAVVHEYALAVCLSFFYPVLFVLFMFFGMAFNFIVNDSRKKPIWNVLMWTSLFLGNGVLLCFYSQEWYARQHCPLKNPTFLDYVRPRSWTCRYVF
Test: In vitro inhibitory concentration against ACAT derived from smooth muscle cells from thoracic aorta of monkeys
Kindly supply the reported IC50 values for the records listed here.
Unit µM implied. Number only.

The value of IC50 measured for the compound CCCCN(C(=O)Nc1ccc(C)cc1C)c1ccccc1 turned out to be 26.9

The value of IC50 measured for the compound Cc1cc(C)c(NC(=O)N(Cc2ccccc2)Cc2ccccc2)cc1C turned out to be 1.08
